SYSTEM NAME: recombinant human KLK5 (human) (UniProt Q9Y337)
Sequence (Q9Y337 67-293): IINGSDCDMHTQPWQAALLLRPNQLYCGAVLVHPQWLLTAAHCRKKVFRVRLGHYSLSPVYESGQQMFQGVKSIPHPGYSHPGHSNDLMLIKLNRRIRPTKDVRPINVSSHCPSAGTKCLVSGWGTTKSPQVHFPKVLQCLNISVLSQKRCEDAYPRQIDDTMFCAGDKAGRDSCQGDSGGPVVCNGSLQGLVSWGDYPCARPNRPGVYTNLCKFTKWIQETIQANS
ASSAY OVERVIEW: Kiapp assay curve, 0.125 nM KLK5, Z-VPR-pNA
Kindly state IC50 (read off the curve) for each of the entries shown.
Give bare numbers, in nM.

>>> numeric_result("9B6 (antibody, V domains shown) VH: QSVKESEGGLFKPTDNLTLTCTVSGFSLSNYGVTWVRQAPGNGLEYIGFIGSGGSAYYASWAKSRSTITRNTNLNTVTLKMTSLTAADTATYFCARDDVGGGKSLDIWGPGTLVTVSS VL: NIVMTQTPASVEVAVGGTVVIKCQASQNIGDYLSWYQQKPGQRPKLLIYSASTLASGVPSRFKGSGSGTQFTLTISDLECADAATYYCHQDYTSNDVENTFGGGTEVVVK")
0.1

Field: next binder
Noted for 8B7 (antibody, V domains shown) VH: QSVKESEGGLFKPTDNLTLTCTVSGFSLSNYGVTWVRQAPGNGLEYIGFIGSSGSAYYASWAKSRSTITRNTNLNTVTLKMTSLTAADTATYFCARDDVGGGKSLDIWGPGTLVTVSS VL: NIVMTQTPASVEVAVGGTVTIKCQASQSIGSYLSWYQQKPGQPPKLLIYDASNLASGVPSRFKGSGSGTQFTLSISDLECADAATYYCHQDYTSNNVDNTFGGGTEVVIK : its IC50 (read off the curve) reads 0.2
